Quick list: koff per entry.
# Measurement target: T1, Human PD-1 protein with histidine and avi tags (ACRO Biosystems, PD1-H82E4) (human, UniProt Q15116 25-167)
# T1 construct: Captured on streptavidin (SA) sensors in the BLI assay; not shown: histidine and avi tags
# T1 sequence (Q15116 25-167 limits assumed): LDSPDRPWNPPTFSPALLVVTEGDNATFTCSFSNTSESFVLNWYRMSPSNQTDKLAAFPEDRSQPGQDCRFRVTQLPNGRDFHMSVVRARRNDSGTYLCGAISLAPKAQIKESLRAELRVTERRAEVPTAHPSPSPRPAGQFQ
# Method: BLI (Octet Red96e), PD-1 captured on SA sensor, 1:1 local fit
Metric: koff (s⁻¹)

>>> measured_value("PR005148 (VHH, Monovalent single-domain (VH) variant of PR002481 with Flag-6His tag) VHH: EVQLVETGGGLIQPGGSLRLSCAASGFNVSSHYMSWVRQAPGKGREWVSIIDKAGSGYYAASVKGRFTISRDNSKNRLYLQMNSLRAEDTAMYYCARATEVREKNGYNYPFNYWGQGTLVTVSS")
"5.72e-05"
>>> measured_value("PR005149 (VHH, Monovalent single-domain (VH) variant of PR002481 with Flag-6His tag) VHH: EVQLVETGGGLIQPGGSLRLSCAASGFNVSSHYMSWVRQAPGKGREWVSIIDKAGSGYYADSVKGRFTISRDNSKNRLYLQMNSLRAEDTAMYYCARATEVREKQGYNYPFNYWGQGTLVTVSS")
"4.83e-05"
>>> measured_value("PR005103 (VHH, Monovalent single-domain (VH) variant of PR002481 with Flag-6His tag) VHH: EVQLVETGGGLIQPGGSLRLSCAASGFNVSSHYMSWVRQAPGKGREWVSIIDRGGGTYYADSVKGRFTISRDNSKNRLYLQMNSLRAEDTAMYYCARATAVAEKNGYNYPFNYWGQGTLVTVSS")
0.000252
>>> measured_value("PR005104 (VHH, Monovalent single-domain (VH) variant of PR002481 with Flag-6His tag) VHH: EVQLVETGGGLIQPGGSLRLSCAASGFNVSSHYMSWVRQAPGKGREWVSIIDISGSTYYADSVKGRFTISRDNSKNRLYLQMNSLRAEDTAMYYCARATAVAEKNGYNYPFNYWGQGTLVTVSS")
0.000243
